- system tested: VLA-4 (a4b1) (Homo sapiens (Human), UniProt P05556+P13612)
- Sequence (P13612 34-1032): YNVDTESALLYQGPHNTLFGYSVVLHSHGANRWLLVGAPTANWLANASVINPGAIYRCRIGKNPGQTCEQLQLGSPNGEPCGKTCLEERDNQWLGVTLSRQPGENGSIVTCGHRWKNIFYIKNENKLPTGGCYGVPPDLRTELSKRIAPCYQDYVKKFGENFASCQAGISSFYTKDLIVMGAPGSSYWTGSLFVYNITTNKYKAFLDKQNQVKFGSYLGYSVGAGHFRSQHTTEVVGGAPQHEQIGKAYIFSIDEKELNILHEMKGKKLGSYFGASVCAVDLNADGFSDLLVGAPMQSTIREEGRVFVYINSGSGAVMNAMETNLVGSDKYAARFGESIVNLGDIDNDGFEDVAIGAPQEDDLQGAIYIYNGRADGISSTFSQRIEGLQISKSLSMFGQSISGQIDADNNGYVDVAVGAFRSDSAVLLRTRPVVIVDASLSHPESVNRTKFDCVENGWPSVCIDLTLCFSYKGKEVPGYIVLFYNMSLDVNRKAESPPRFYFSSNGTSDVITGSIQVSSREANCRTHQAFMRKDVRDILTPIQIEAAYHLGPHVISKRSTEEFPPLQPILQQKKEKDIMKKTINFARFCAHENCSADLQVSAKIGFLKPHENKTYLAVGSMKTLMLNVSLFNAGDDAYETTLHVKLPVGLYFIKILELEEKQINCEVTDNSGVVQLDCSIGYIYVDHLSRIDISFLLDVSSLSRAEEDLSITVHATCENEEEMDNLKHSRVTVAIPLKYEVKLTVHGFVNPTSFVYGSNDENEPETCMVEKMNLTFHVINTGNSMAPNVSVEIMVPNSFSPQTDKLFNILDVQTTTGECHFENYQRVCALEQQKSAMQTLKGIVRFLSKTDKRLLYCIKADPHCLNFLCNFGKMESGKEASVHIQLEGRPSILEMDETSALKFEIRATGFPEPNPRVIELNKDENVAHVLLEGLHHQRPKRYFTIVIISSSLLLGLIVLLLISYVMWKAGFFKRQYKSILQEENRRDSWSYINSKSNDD
- Sequence (P05556 21-798): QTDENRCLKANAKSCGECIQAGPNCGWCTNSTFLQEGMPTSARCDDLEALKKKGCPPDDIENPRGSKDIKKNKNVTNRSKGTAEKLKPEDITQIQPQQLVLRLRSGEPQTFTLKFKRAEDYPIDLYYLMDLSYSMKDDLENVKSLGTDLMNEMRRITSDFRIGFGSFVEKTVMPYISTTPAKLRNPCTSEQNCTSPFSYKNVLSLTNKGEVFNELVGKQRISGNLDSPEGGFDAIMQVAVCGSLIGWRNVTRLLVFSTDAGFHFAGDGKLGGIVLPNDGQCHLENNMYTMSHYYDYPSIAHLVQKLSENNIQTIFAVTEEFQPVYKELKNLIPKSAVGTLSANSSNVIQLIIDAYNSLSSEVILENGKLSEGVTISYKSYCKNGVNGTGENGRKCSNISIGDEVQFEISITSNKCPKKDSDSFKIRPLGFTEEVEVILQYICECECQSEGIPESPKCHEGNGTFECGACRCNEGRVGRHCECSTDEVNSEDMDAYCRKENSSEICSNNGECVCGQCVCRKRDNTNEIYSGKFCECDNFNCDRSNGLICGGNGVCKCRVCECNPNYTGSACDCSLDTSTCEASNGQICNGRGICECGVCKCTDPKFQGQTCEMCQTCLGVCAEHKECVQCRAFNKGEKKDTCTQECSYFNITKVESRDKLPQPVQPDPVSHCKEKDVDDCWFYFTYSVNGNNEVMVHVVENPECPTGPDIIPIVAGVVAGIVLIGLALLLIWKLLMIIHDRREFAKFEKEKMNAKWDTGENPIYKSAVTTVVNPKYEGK
- assay remarks: sVCAM flow cytometry cell-based assay (inhibition of soluble VCAM-1 binding to G2 ALL cells);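 also: compounds at 0.1 to 1000 nM preincubated 30 min with G2 ALL cells, then VCAM/Fc added for 30 min, bound VCAM-1 detected by PE secondary antibody, percent binding cells by flow cytometry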
- assay setup: as listed in TABLE 20; read-out: sVCAM IC50
assay endpoint: IC50 (nM)

# annotated cases, reported IC50 shown
>  <smiles repr>
CN(C)c1ccc2c(c1)c(=O)n(-c1ccc(C[C@H](NC(=O)c3c(Cl)cccc3Cl)C(=O)O)cc1)c(=O)n2C

>  <measured result>
118

$$$$
>  <smiles repr>
COc1cccc(OC)c1-c1ccc(C[C@H](CC(=O)c2c(Cl)cc(C(=O)O)cc2Cl)C(=O)O)cc1

>  <measured result>
4.9

$$$$

A. COc1cccc(OC)c1-c1ccc(C[C@H](NC(=O)c2c(Cl)cccc2Cl)C(=O)O)cc1
B. Cc1cccc(Cl)c1C(=O)N[C@@H](Cc1ccc(NC(=O)c2c(Cl)cccc2Cl)cc1)C(=O)O
Prompt: When their IC50 values are compared, which is larger, A or B ? Answer with the label corresponding to your selection.
Response: A
(A: 247 nM, B: 98.7 nM)
